Test system: CMK
Assay: CellTox Green cytotoxicity fluorescence relative to DMSO vehicle (fold of vehicle RFU); higher = more cell death (loss of membrane integrity), active = 2 or more
Conditions: 0.1 µM; 48 h
Rule: y for CellTox Green cytotoxicity fluorescence not less than 1, n for anything less.

Prompt: Does CCOC(=O)c1[nH]c2cc(Cl)ccc2c1C(C(=O)NC(C)(C)C)N(C=O)Cc1ccc(Cl)cc1 (configuration not stated) have a reported CellTox Green cytotoxicity fluorescence of at least 1?
Response: n

Prompt: Answer whether CellTox Green cytotoxicity fluorescence of Fc1ccc(CNc2ncnc3ccc(F)cc23)cc1 is greater than or equal to 1.
Response: n

Prompt: # check: CellTox Green cytotoxicity fluorescence of CC[C@@]1(O)C(=O)OCc2c1cc1n(c2=O)Cc2cc3cc(O)ccc3nc2-1 [(S)-10-Hydroxycamptothecin] is greater than or equal to 1
Response: y

Prompt: Kindly determine if CellTox Green cytotoxicity fluorescence recorded for C=CC(=O)N1CC(=Cc2ccc([N+](=O)[O-])cc2)C(=O)C(=Cc2ccc([N+](=O)[O-])cc2)C1 is above or exactly 1.
Response: y

Prompt: Please indicate if the recorded CellTox Green cytotoxicity fluorescence for CNC(=O)c1ccc(Nc2ncc(C(F)(F)F)c(NCc3nccnc3N(C)S(C)(=O)=O)n2)cc1 meets or exceeds 1.
Response: n

Prompt: Threshold query (CellTox Green cytotoxicity fluorescence >= 1) on O=C(COc1ccc(Cl)cc1)NC1CCC(NC(=O)COc2ccc(Cl)cc2)CC1 (configuration not stated)
Response: n

Prompt: Record COc1cc(C(=O)N2CCC(N3CCN(C)CC3)CC2)ccc1Nc1ncc2c(n1)N(C)c1ccccc1C(=O)N2C ; criterion: CellTox Green cytotoxicity fluorescence no lower than 1. Met?
Response: n

Prompt: Does CellTox Green cytotoxicity fluorescence meet or surpass 1 for CC(=O)O/N=C1/C(c2c(O)[nH]c3cc(Br)ccc23)=Nc2ccccc21 ?
Response: n

Further cases:
Prompt: Does CC(C)c1cc2c(N3CCN(C4=NCC(C)(C)S4)CC3)ncnc2s1 have a reported CellTox Green cytotoxicity fluorescence of at least 1?
Response: n

Prompt: Check if CellTox Green cytotoxicity fluorescence >= 1 (inclusive). Item: CC(C)CC(NC(=O)C(Cc1ccccc1)CC(O)C(Cc1ccccc1)NC(=O)OC(C)(C)C)C(=O)NC(Cc1ccccc1)C(N)=O (configuration not stated)
Response: n

###

System: CMK
Test: CellTox Green cytotoxicity fluorescence relative to DMSO vehicle (fold of vehicle RFU); higher = more cell death (loss of membrane integrity), active = 2 or more
Details: 0.01 µM; 24 h
endpoint: CellTox Green cytotoxicity fluorescence
Kindly provide the number alone.

Solved cases (3 shown):
Prompt: GET /values?readout=CellTox Green cytotoxicity fluorescence&item= CN[C@@H](C)C(=O)N[C@H](C(=O)N1CCC[C@H]1c1nc(C(=O)c2ccc(F)cc2)cs1)C1CCCCC1
Response: 0.96

Prompt: CellTox Green cytotoxicity fluorescence lookup needed for N#CC(=Cc1ccc(-c2cc(Cl)ccc2Cl)o1)C(=O)Nc1cccc2ncccc12 , thanks.
Response: 0.949

Prompt: Recorded CellTox Green cytotoxicity fluorescence for CC(=O)N1c2ccc(-c3ccc(C(=O)O)cc3)cc2[C@H](Nc2ccc(Cl)cc2)C[C@@H]1C , please?
Response: 0.995

Next:
Prompt: Any idea what CellTox Green cytotoxicity fluorescence was measured for CN[C@@H](C)C(=O)N[C@H](C(=O)N1CCC[C@H]1C(=O)Nc1snnc1-c1ccccc1)C1CCCCC1 ?
Response: 0.986

Prompt: Item O=C(O)CSc1cc(NS(=O)(=O)c2ccc(Br)cc2)c2ccccc2c1O has what recorded CellTox Green cytotoxicity fluorescence?
Response: 0.973

Prompt: Can you share its CellTox Green cytotoxicity fluorescence? I mean this compound: CCN(CC)CCNC(=O)c1c(C)[nH]c(/C=C2\C(=O)Nc3ccc(F)cc32)c1C [Sunitinib]
Response: 1.02

Prompt: Which measured CellTox Green cytotoxicity fluorescence value corresponds to CC(C)[C@H](CO)Nc1nc(Nc2cccc(Cl)c2)c2ncn(C(C)C)c2n1 [Purvalanol A] ?
Response: 0.988

Prompt: Recorded CellTox Green cytotoxicity fluorescence for Cc1c(C(=O)Nc2ccc(Oc3ccnc4[nH]cc(-c5ccccc5)c34)c(F)c2)c(=O)n(-c2ccc(F)cc2)n1C , please?
Response: 1.01
